Cited source: ChEMBL document CHEMBL4513216

tested on: Plasmodium berghei; assay: Screen against P. berghei liver stage (PbLuc), transformed with Luciferase, at 10uM; type: functional, HepG2; conditions: tested at 10 uM
Among all 69,000 compounds or so, about 8,600 (12%) showed an effect of 50% or more. The list comes from a sample in which strong results are over-represented; it also holds close analogues and randomly drawn compounds.
For each entry below, report its INHIBITION value.
I'd appreciate it if you wrote the number followed by its unit.

CCc1cccc(N2CCC(NC(=O)C3CCC3)CC2)c1	64.7%
CC(C)(N)C(=O)N1CCCC1c1cncc(Oc2ccccc2)n1 (stereo not drawn)	26.3%

# ---- query compound ----
Query :: // lookup INHIBITION for Cc1cc(C)c(CNC(=O)CC2CCCO2)c(=O)[nH]1 (stereo not drawn)
Result :: 14.55%
